# subjectOfTest: T1, IL-36R naturally expressed on OVCAR8 cells and on normal human epidermal keratinocytes (NHK cells) (human, UniProt Q9HB29 20-575)
# T1 sequence (looked up): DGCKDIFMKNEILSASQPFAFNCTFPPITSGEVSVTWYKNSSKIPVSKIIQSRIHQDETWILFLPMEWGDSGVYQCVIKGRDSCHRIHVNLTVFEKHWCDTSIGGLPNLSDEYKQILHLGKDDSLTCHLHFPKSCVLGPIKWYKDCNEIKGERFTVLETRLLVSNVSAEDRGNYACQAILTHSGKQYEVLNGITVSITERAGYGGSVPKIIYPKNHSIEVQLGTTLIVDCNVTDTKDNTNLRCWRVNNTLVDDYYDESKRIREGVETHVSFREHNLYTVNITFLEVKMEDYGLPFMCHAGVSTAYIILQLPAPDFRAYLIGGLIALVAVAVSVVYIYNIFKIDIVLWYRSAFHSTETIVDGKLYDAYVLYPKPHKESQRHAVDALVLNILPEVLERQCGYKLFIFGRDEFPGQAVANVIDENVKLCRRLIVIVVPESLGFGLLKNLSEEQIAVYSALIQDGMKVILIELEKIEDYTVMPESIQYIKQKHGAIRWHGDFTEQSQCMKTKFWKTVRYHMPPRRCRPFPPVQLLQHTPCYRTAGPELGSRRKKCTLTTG
# assayInfo: cell-based or functional assay
attributeMeasured: IC50 (M); hIL36αβγ; IL-8 production
Answer with a number only, understood to be in M.

- hz84C4-2.3 (antibody, human IgG4 S228P, kappa, V domains shown, Humanized, human IgG4 / kappa) VH: QVQLVQSGAEVKKPGASVKVSCKASGYFFTSYWMNWVRQAPGQGLEWMGMIYPYDSETRYAQKFQGRVTMTVDKSTSTVYMELSSLRSEDTAVYYCASSTTAFAYWGQGTLVTVSS VL: DIQMTQSPSSLSASVGDRVTITCRASQDIGNALNWLQQKPGKAPKRLIYATSSLDPGVPSRFSGSRSGTDYTLTISSLQPEDFATYYCLQYASSPYTFGQGTKVEIKR: 8.23e-11
- hz84C4-1.4 (antibody, human IgG4 S228P, kappa, V domains shown, Humanized, human IgG4 / kappa) VH: QVQLVQSGAEVKKPGASVKVSCKASGYYFTSYWMNWVRQAPGQGLEWMGMIHPYDSETRLAQKFKGRVTMTVDKSTSTVYMELSSLRSEDTAVYYCASSTTAFAYWGQGTLVTVSS VL: DIQMTQSPSSLSASVGDRVTITCRASQDIGNALNWYQQKPGKAPKRLIYATSSLDPGVPSRFSGSRSGTDFTLTISSLQPEDFATYYCLQYASSPYTFGQGTKVEIKR: 5.76e-11
- hz84C4-2.2 (antibody, human IgG4 S228P, kappa, V domains shown, Humanized, human IgG4 / kappa) VH: QVQLVQSGAEVKKPGASVKVSCKASGYFFTSYWMNWVRQAPGQGLEWMGYIHPYDSETRYAQKFQGRVTMTVDKSTSTVYMELSSLRSEDTAVYYCASSTTAFAYWGQGTLVTVSS VL: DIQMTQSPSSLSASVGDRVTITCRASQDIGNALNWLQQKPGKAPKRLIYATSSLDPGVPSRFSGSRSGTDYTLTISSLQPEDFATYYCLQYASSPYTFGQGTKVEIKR: 6.63e-11
- hz84C4-2.5 (antibody, human IgG4 S228P, kappa, V domains shown, Humanized, human IgG4 / kappa) VH: QVQLVQSGAEVKKPGASVKVSCKVSGYFFTSYWMNWVNQAPGQGLEWMGMIHPYDSETRLAQKFKGRVTMTVDKSTSTVYMELSSLRSEDTAVYYCASSTTAFAYWGQGTLVTVSS VL: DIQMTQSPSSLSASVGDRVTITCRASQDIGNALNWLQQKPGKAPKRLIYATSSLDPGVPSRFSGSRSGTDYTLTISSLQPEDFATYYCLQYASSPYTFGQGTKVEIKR: 6.61e-11

API: the following record is the query input.
Task item: For the binder hz84C4-1.2 (antibody, human IgG4 S228P, kappa, V domains shown, Humanized, human IgG4 / kappa) VH: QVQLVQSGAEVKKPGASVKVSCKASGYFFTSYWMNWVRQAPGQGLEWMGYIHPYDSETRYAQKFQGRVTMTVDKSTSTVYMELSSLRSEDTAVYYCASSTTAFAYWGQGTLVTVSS VL: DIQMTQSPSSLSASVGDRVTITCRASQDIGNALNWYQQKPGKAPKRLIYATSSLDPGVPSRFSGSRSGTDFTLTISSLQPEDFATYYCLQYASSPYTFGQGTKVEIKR , give its measured IC50 (M); hIL36αβγ; IL-8 production value.
Reply: 6.67e-11
